Record form. Attribute: IC50. Fill in for each entry.
target: constitutive 20S proteasome (Bos taurus, UniProt Q2TBP0+Q32KL2+Q3MHN0); construct: isolated constitutive and immunoproteasomes purified from bovine brain and thymus, respectively; from tissue; host or cells: bovine brain; assay: In vitro activity assays on isolated constitutive 20S proteasome (fluorogenic peptides); type: biochemical; details: isolated 20S from bovine brain; read-out: IC50 BrAAP Constitutive proteasome
Respond with the bare value in nM.

// query Please provide the recorded IC50 for O=C1CCC(Cc2ccc(O)cc2)O1 (stereo not drawn) [Compound C1, 5‐(4ʹ‐hydroxyphenyl)‐γ‐valerolactone] , tested on constitutive 20S proteasome (Bos taurus, UniProt Q2TBP0+Q32KL2+Q3MHN0).
// result 243

// query Please provide the recorded IC50 for O=C1CCC(Cc2ccc(O)c(O)c2)O1 (stereo not drawn) [Compound C2] , tested on constitutive 20S proteasome (Bos taurus, UniProt Q2TBP0+Q32KL2+Q3MHN0).
// result 256

// query Please provide the recorded IC50 for O=C1CCC(Cc2ccc(OS(=O)(=O)O)c(O)c2)O1 (stereo not drawn) [Compound C3] , tested on constitutive 20S proteasome (Bos taurus, UniProt Q2TBP0+Q32KL2+Q3MHN0).
// result 302

Where do the numbers come from? From paper PMC9285603.
